These data points were gathered from PubChem BioAssay (NCI).

Measured TGI of individual entries
System: KM20L2 colon
Assay: NCI tumour cell line growth inhibition, 48 h

{"columns": ["Molecule", "Endpoint result"],
 "data": [
  ["CN(C)CC1CCCCCCCCCCCCC(CN(C)C)C1=O (configuration not stated)", "24.9 µM"],
  ["CCC1c2cc3n(c(=O)c2COC1O)Cc1c-3nc2ccccc2c1Cl (configuration not stated)", "> 100 µM"],
  ["O=C(N/C=C/C=C/Sc1ccccc1)OCc1ccccc1", "31 µM"]
]}

Report the value of TGI obtained on KM20L2 colon for CC(=O)CC(=O)NC=O .
> 100 µM

State measured TGI of the molecule CC(=O)SC(SC(C)=O)SC(C)=O with KM20L2 colon.
> 100 µM

Determine reported TGI for CN(C)c1ccc(/C=c2\sc3nnc(-c4cccnc4)n3c2=O)cc1 ; test system: KM20L2 colon.
> 100 µM

Please report the measured TGI for Cc1cc2c(cc1C)[n+](=O)c(C(=O)CC(=O)C(=O)Nc1ccccc1C(C)C)c(C)n2[O-] tested on KM20L2 colon.
> 100 µM

Report measured TGI on KM20L2 colon; entry: OCCCc1cnco1
> 100 µM

* * *

Tested on: A549 NSCLC
Experiment: NCI tumour cell line growth inhibition, 48 h
Known TGI of a selection of compounds
Express the result in µM but write the number alone.

{"columns": ["Compound", "Test target", "TGI [µM]"],
 "data": [
  ["O=[N+]([O-])/C=C/c1cc2ccc3ccccc3c2[nH]1", "A549 NSCLC", 4.88]
]}

Please look at this compound and report its TGI: CC(C)(CN1CCCCC1)C(=O)CC(SCCN)c1ccc(Cl)cc1 (configuration not stated)
10.2

Consider the compound O=C(O)c1ccc(C(=O)O)c(C(=O)O)c1.[NH-]C1CCCCC1[NH-].[Pt+2] . State its measured TGI.
39

* * *

Test system: SW-620 colon
Experiment: NCI tumour cell line growth inhibition, 48 h
# TGI per entry

Sample records with TGI:
{"columns": ["Compound", "TGI"],
 "data": [
  ["O=C1c2cccnc2C(=O)c2c1c(C(=O)OCCc1ccccn1)c1ccccn21", "> 44.8 µM"],
  ["CC(=O)CC(=O)NC=O", "> 100 µM"],
  ["Cc1c(-c2nc(N)c(C#N)c(N)c2C#N)c(=O)oc2ccccc12", "> 100 µM"],
  ["CC1=NC=C(O)c2ccccc2O1", "> 100 µM"]
]}

Give the reported TGI for this compound. O=[N+]([O-])c1ccc(/C(Cl)=C/c2ccc(/C=C(\Cl)c3ccc([N+](=O)[O-])cc3[N+](=O)[O-])cc2)c([N+](=O)[O-])c1
> 100 µM

Let me know recorded TGI for Cc1[nH]c2nc3c(ncn3COCCO)c(=O)n2c1C(c1ccccc1)(c1ccccc1)c1ccccc1 , thanks.
> 56.4 µM

Look up and state reported TGI for NCCCNc1nc2ccc(Cl)cc2c2c(=O)c3cc(F)ccc3sc12
3.32 µM

Indicate its recorded TGI; the compound in question is COc1cc2cc3c4cc(OC)c(OC)cc4cc[n+]3c(C)c2cc1OC
> 100 µM

Please give the documented TGI of O=C(Cc1ccccc1)NN1C(=O)C(Cl)C1c1cccc([N+](=O)[O-])c1 (configuration not stated)
> 89.1 µM

Specify reported TGI for the compound shown: CCOC(=O)/C(=C/c1ccccc1Br)P(=O)(OCC)OCC
4.45 µM

Give a short answer stating reported TGI for O=C(O)c1cccc(OCCOc2cccc(C(=O)O)c2[N+](=O)[O-])c1[N+](=O)[O-] .
> 100 µM

* * *

Tested on: HOP-92 NSCLC
Assay: NCI tumour cell line growth inhibition, 48 h; in the data active = GI50 below about 0.43 µM; inactive = the rest
Your answer must be one of the following: label 1 (active), label 0 (inactive)

Known results for compounds:
{"columns": ["Compound", "Test target", "Cat"],
 "data": [
  ["NC(=N\\N=C/c1ccc(Cl)cc1Cl)/C(N)=N\\N=C/c1ccc(Cl)cc1Cl", "HOP-92 NSCLC", "label 0"],
  ["Cn1c(NCC(CN2CCCC2)OC(=O)c2ccccc2)cc(=O)n(C)c1=O (centres undefined)", "HOP-92 NSCLC", "label 0"],
  ["CCC(C)(C)[C@H](NC(=O)[C@H]1CCCCN1C)C(=O)N(C)[C@H](C[C@@H](OC(C)=O)c1nc(C(=O)N[C@@H](Cc2ccccc2)C[C@H](C)C(=O)O)cs1)C(C)C", "HOP-92 NSCLC", "label 1"]
]}

Assay result, entry O=C(/C=C/c1nnc2n(Cc3ccccc3)c(=O)c3c4c(sc3n12)CCCC4)c1ccccc1 — outcome?
label 0

Fill in: this test's call for COc1ccc(C2CC(c3ccc4ccccc4c3)=NN2c2nc(O)c(C3=c4cc(OC)ccc4=NC3=O)s2)cc1 (centres undefined) is ___
label 1

Identify the outcome logged in this assay for the compound shown: FC(F)(F)c1ccc(-c2ncc(-c3ccc(C(F)(F)F)cc3)c(NCc3cc(C(F)(F)F)cc(C(F)(F)F)c3)n2)cc1
label 0

Identify the outcome logged in this assay for the compound shown: Cc1ccc(NC(=O)c2nc(S(C)(=O)=O)oc2-c2ccc(F)cc2)cc1Nc1ccc2ncn(C)c(=O)c2c1
label 0

Would you mind telling me which call this test gave O=C(Cc1ccc(Nc2ccnc(C(F)(F)F)c2)cc1)N/N=C/c1ccccc1O ?
label 0

# fetch the recorded call for O=C([O-])CCc1ccccc1.O=C([O-])CCc1ccccc1.O=C([O-])CCc1ccccc1.O=C([O-])CCc1ccccc1.[Mo+2].[Mo+2] here
label 0

Test call for this compound, please: FC(F)(F)c1cc(-c2ncn(/C=C\c3nnco3)n2)cc(C(F)(F)F)c1
label 1

Per the records of this test, what outcome belongs to O=C(O)c1cn(C2CC2)c2cc(N3CCN(C(=O)Nc4nc(-c5ccc(Br)cc5)cs4)CC3)c(F)cc2c1=O ?
label 0

* * *

System: HL-60(TB) leukemia
Assay: NCI tumour cell line growth inhibition, 48 h
Quantity: TGI (µM)
Respond with the bare value in µM.

Use the examples below as a reference point.
{"columns": ["Compound", "Quantity", "Endpoint result"],
 "data": [
  ["NCCCn1c2c(c3ccc([N+](=O)[O-])cc3c1=O)C(=O)c1cc(F)ccc1-2", "TGI", 0.166],
  ["COC(=O)c1ccc(C)cc1C1CN=NC12Cc1cc(C)ccc1C2=O (configuration not stated)", "TGI", 16.3]
]}

Give reported TGI for CCC(c1ccc(OC)cc1)C1NC(=S)NC1=O (configuration not stated) (HL-60(TB) leukemia)
47.3

Give TGI for this entry on HL-60(TB) leukemia: COc1ccccc1N1C(=O)CSC1c1cc(OC)c(OC)c(OC)c1 (configuration not stated)
97.7

System HL-60(TB) leukemia. Read-out TGI. Item COC1=CC(=O)c2c(cc3c(c2O)-c2c(OC)cc4cc5c(c(O)c4c2OC(=O)CC(C)(O)C3)C(=O)CC(C)(O)C5)C1=O (configuration not stated) . Report value.
5.56

* * *

Tested on: MALME-3M melanoma
Experiment: NCI tumour cell line growth inhibition, 48 h
Measured TGI of individual entries
Only the number, expressed in µM, is required.

{"columns": ["Test smiles", "TGI, µM"],
 "data": [
  ["Cc1cccc(N=C/C=C(\\Cl)c2ccc3ccccc3c2)c1", 36.4],
  ["COc1ccc2[nH]c3c4c(cc(-c5ccccc5)c3c2c1)C(=O)N(c1ccccc1)C4=O", 65],
  ["COc1cc(/C=C/C(=O)c2c(C)nc3ccccc3c2C)ccc1OCCCCOc1cc2c(cc1OC)C(=O)N1CCC[C@H]1C=N2", 2.37],
  ["NCCCNc1nc2ccc(Cl)cc2c2c(=O)c3cc(F)ccc3sc12", 23.2]
]}

Kindly review the next compound as well.
Provide the reported TGI (system: MALME-3M melanoma) for COc1ncc(-c2ccc3nccc(C#CCN4CCN(S(C)(=O)=O)CC4)c3c2)cc1NS(=O)(=O)c1ccc(F)cc1F
0.214

* * *

Tested on: OVCAR-3 ovarian
Experiment: NCI tumour cell line growth inhibition, 48 h
Quantity: TGI

{"columns": ["Molecule", "Test target", "TGI"],
 "data": [
  ["COc1cc2c(cc1O)Cc1c-2[n+](C)cc2cc(OC)c(OC)cc12", "OVCAR-3 ovarian", "> 100 µM"],
  ["Cn1c(NCC(CN2CCCC2)OC(=O)c2ccccc2)cc(=O)n(C)c1=O (stereo unspecified)", "OVCAR-3 ovarian", "> 100 µM"],
  ["O=[N+]([O-])c1ccc(CN=C2NNS(=O)(=O)c3ccccc32)cc1", "OVCAR-3 ovarian", "> 100 µM"],
  ["COc1cc2c3c(n(CCCN4CCCNCC4)c(=O)c2cc1OC)-c1cc2c(cc1C3=O)OCO2", "OVCAR-3 ovarian", "7.66 µM"],
  ["O=C(Nc1ccccc1)c1cccc([N+](=O)[O-])c1", "OVCAR-3 ovarian", "> 100 µM"]
]}

Given Cc1cc(C)c(S(=O)(=O)N(CCCN)OCCON(CCCN)S(=O)(=O)c2c(C)cc(C)cc2C)c(C)c1 , respond with its TGI.
3.93 µM

Give the measured TGI for Cc1cc(C)nc(NCCC(O)(P(=O)(O)O)P(=O)(O)O)n1
> 100 µM

Please supply the value of reported TGI for the item N#Cc1c(-c2ccccc2)cc(-c2cccs2)c(C#N)c1N
> 100 µM
